parameter-measured: melting point (°C)

[[record]]
compound = "C=CC(=O)N1CC[C@@H](N2CC(c3cc(C)c4c(c3)Nc3ncnc(N5CCS(=O)(=O)CC5)c3[C@@H](C)O4)C2)C1 (single isomer, unassigned) [compound 122]"
unit_string = "°C"
test_value = 237

[[record]]
compound = "C=CC(=O)N1CC[C@H](N2CC(c3cc(C)c4c(c3)Nc3ncnc(N5CCS(=O)(=O)CC5)c3CO4)C2)C1 [compound 90]"
unit_string = "°C"
test_value = 232

[[record]]
compound = "CC#CC(=O)N1CCC(N2CCN(c3cc(C)c4c(c3)Nc3ncnc(N5CCS(=O)(=O)CC5)c3CO4)CC2)CC1 [compound 136]"
unit_string = "°C"
test_value = 240

[[record]]
compound = "C=CC(=O)N1CC(N2CCC(c3ccc4c(c3)Nc3ncnc(N5CCOCC5)c3CO4)CC2)C1 [compound 1]"
unit_string = "°C"
test_value = 184

[[record]]
compound = "C=CC(=O)N1CCC(N2CC(c3cc(C)c4c(c3)Nc3ncnc(N5CCS(=O)(=O)CC5)c3[C@H](C)O4)C2)CC1 (single isomer, unassigned) [compound 100]"
unit_string = "°C"
test_value = 226

[[record]]
compound = "C=CC(=O)N1CC[C@@H](N2CC(c3cc(C)c4c(c3)Nc3ncnc(N5CCS(=O)(=O)CC5)c3CO4)C2)C1 [compound 92]"
unit_string = "°C"
test_value = 241

[[record]]
compound = "C=CC(=O)N1CC(N2CCCC(c3ccc4c(c3)Nc3ncnc(N5CCOCC5)c3CO4)C2)C1 (stereo not shown) [compound 35]"
unit_string = "°C"
test_value = 175

[[record]]
compound = "C=CC(=O)N1CC(N2CCC(c3cc(F)c4c(c3)Nc3ncnc(-c5cnn(C)c5)c3[C@@H](C)O4)CC2)C1 (single isomer, unassigned) [compound 52]"
unit_string = "°C"
test_value = 245

[[record]]
compound = "C=CC(=O)N1CC(N2CCN(c3cc4c(cn3)OCc3c(ncnc3N3CCOCC3)N4)CC2)C1 [compound 71]"
unit_string = "°C"
test_value = 256

[[record]]
compound = "CC#CC(=O)N1CCC(N2CC(c3cc(C)c4c(c3)Nc3ncnc(N5CCS(=O)(=O)CC5)c3[C@@H](C)O4)C2)CC1 (single isomer, unassigned) [compound 124]"
unit_string = "°C"
test_value = 292

[[record]]
compound = "CC#CC(=O)N1CC(N2CCC(c3cc(C)c4c(c3)Nc3ncnc(N5CCS(=O)(=O)CC5)c3CO4)CC2)C1 [compound 151]"
unit_string = "°C"
test_value = 189

[[record]]
compound = "C=CC(=O)N1CC(N2CC[C@@H](c3ccc4c(c3)Nc3ncnc(N5CCOCC5)c3CO4)[C@@H](C)C2)C1 [compound 36]"
unit_string = "°C"
test_value = 232


----------
Target: CDK7/cyclinH/MAT1 trimeric complex (Homo sapiens (Human), UniProt P50613)
Sequence (P50613 whole entry): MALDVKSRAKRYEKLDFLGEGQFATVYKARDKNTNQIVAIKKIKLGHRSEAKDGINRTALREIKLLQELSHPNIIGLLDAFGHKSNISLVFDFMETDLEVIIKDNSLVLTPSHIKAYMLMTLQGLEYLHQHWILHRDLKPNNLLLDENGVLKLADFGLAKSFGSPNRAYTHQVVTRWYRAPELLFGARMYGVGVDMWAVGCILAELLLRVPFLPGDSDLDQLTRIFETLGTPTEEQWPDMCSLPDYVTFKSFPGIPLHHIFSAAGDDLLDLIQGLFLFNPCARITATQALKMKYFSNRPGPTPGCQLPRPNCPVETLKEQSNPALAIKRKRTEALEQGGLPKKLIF
Sequence (P51946 whole entry partner): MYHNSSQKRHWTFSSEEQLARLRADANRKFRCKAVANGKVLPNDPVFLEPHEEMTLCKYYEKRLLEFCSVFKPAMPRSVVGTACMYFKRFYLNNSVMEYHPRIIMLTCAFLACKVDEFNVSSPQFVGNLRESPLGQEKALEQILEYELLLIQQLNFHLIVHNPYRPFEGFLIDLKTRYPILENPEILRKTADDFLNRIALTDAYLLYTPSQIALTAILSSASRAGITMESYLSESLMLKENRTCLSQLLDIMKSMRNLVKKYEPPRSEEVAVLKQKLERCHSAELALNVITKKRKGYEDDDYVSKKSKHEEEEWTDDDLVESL
Sequence (P51948 whole entry partner): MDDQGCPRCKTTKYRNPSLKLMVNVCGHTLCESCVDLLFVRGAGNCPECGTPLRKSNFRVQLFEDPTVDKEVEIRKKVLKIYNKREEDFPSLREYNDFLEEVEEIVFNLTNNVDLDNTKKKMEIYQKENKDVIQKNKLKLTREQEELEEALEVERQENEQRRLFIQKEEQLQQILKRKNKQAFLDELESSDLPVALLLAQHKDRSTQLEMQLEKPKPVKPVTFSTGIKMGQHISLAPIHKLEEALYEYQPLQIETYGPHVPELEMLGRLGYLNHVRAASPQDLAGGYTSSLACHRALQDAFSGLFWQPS
Test: In vitro CDK7 assay, potency of irreversible covalent inhibitors (kinact/KI)
Conditions: read-out: CDK7 (20 nM enz.) (kobs/[I], M^−1*s^−1), 20 nM enz.
parameter-measured: kinact/KI (M⁻¹ s⁻¹)

// solved cases for kinact/KI follow
[[record]]
compound = "C=CC(=O)N1CC(N2CCC(c3cc(C)c4c(c3)Nc3ncnc(N5CCS(=O)(=O)CC5)c3CO4)CC2)C1"
parameter_measured = "kinact/KI"
test_value = 1460

[[record]]
compound = "C=CC(=O)N1CC(N2CCC(c3cc(C)c4c(c3)Nc3ncnc(N5CCS(=O)(=O)CC5)c3[C@H](C)O4)CC2)C1"
parameter_measured = "kinact/KI"
test_value = 1280

[[record]]
compound = "C=CC(=O)N1CC(N2CCC(c3cc4c(c(C)n3)O[C@H](C)c3c(ncnc3N3CCS(=O)(=O)CC3)N4)CC2)C1 (single isomer, unassigned)"
parameter_measured = "kinact/KI"
test_value = 725

[[record]]
compound = "C=CC(=O)N1CCC(N2CCC(c3cc(C)c4c(c3)Nc3ncnc(N5CCS(=N)(=O)CC5)c3CO4)CC2)C1 (stereo not shown)"
parameter_measured = "kinact/KI"
test_value = 1140


I. C=CC(=O)N1CC(N2CCC(c3cc(Cl)c4c(c3)Nc3ncnc(N5CCS(=O)(=O)CC5)c3CO4)CC2)C1
II. C#Cc1cc(C2CCN(C3CN(C(=O)C=C)C3)CC2)cc2c1O[C@@H](C)c1c(ncnc1N1CCS(=O)(=O)CC1)N2
III. C=CC(=O)N1CC(N2CCC(c3cc(F)c4c(c3)Nc3ncnc(-c5cnn(C)c5)c3[C@H](C)O4)CC2)C1 (single isomer, unassigned)
Lookup: List from greatest to least kinact/KI. Quick reminder: the answer is the labels in the order asked.
Found: I, II, III

----------
Biological target: CDK7/cyclinH/MAT1 trimeric complex (Homo sapiens (Human))
Assay: In vitro CDK7 assay, potency of irreversible covalent inhibitors (kinact/KI)
Details: CDK7 (20 nM enz.) (KI, μM), 20 nM enz.
parameter-measured: Ki (µM)

[[record]]
compound = "CC#CC(=O)N1CC(N2CCC(c3cc(C)c4c(c3)Nc3ncnc(N5CCOC6(COC6)C5)c3CO4)CC2)C1"
parameter_measured = "Ki"
test_value = 0.108


P. C=CC(=O)N1CC(N2CCC(c3ccc4c(c3)Nc3ncnc(N5CCOCC5)c3[C@H](C)O4)CC2)C1 (single isomer, unassigned)
Q. C=CC(=O)N1CC(N2CCC(c3cc4c(cc3C#N)OCc3c(ncnc3N3CCOCC3)N4)CC2)C1
R. C=CC(=O)N1CC[C@@H](N2CC(c3cc4c(c(C5CC5)c3)O[C@H](C)c3c(ncnc3N3CCS(=O)(=O)CC3)N4)C2)C1 (single isomer, unassigned)
Lookup: List from greatest to least Ki. Quick reminder: the answer is the labels in the order asked.
Found: Q, P, R

P. C#Cc1cc(C2CCN(C3CN(C(=O)C=C)C3)CC2)cc2c1O[C@H](C)c1c(ncnc1N1CCS(=O)(=O)CC1)N2 (single isomer, unassigned)
Q. C=CC(=O)N1CC[C@@H](N2CCC(c3cc(F)c4c(c3)Nc3ncnc(N5CCOCC5)c3CO4)CC2)C1 (single isomer, unassigned)
Lookup: Exercise: compare P and Q ; which one has the greater Ki? Your choice should be expressed through its label.
Found: Q
(Q: 0.643 µM, P: 0.0806 µM)

----------
pIC50 data for RNA polymerase II Serine 5 phosphorylation (CDK7) in A549 cells follow.
pIC50: −log10 of the molar value.
parameter-measured: pIC50

// solved cases for pIC50 follow
[[record]]
molecule = "C=CC(=O)N1CCC(N2CC(c3cc(C#N)c4c(c3)Nc3ncnc(N5CCOCC5)c3CO4)C2)CC1"
experimental_target = "RNA polymerase II Serine 5 phosphorylation (CDK7) in A549 cells"
parameter_measured = "pIC50"
test_value = 6.28

[[record]]
molecule = "C=CC(=O)N1CCC(N2CC(c3cc(C)c4c(c3)Nc3ncnc(N5CCS(=N)(=O)CC5)c3CO4)C2)CC1"
experimental_target = "RNA polymerase II Serine 5 phosphorylation (CDK7) in A549 cells"
parameter_measured = "pIC50"
test_value = 6.55

[[record]]
molecule = "C=CC(=O)N1CC[C@H](N2CC(c3cc(C)c4c(c3)Nc3ncnc(N5CCS(=O)(=O)CC5)c3CO4)C2)C1"
experimental_target = "RNA polymerase II Serine 5 phosphorylation (CDK7) in A549 cells"
parameter_measured = "pIC50"
test_value = 6.60

[[record]]
molecule = "CC#CC(=O)N1CC(N2CCC(c3cc(C)c4c(c3)Nc3ncnc(N5CCOC6(COC6)C5)c3CO4)CC2)C1"
experimental_target = "RNA polymerase II Serine 5 phosphorylation (CDK7) in A549 cells"
parameter_measured = "pIC50"
test_value = 6.99

[[record]]
molecule = "C=CC(=O)N1CCC(N2CC(c3cc4c(c(C)n3)OCc3c(ncnc3N3CCS(=O)(=O)CC3)N4)C2)CC1"
experimental_target = "RNA polymerase II Serine 5 phosphorylation (CDK7) in A549 cells"
parameter_measured = "pIC50"
test_value = 5.77


1. C=CC(=O)N1CC(N2CCC(c3cc(C)c4c(c3)Nc3ncnc(N5CCOC6(COC6)C5)c3CO4)CC2)C1
2. C=CC(=O)N1CC(N2CCC(c3cc(C)c4c(c3)Nc3ncnc(-c5ccnn5C)c3CO4)CC2)C1
3. CC#CC(=O)N1CC[C@@H](N2CC(c3cc(C)c4c(c3)Nc3ncnc(N5CCS(=O)(=O)CC5)c3CO4)C2)C1
4. C=CC(=O)N1CC(N2CCC(c3ccc4c(c3)Nc3ncnc(-c5ccc(=O)n(C)c5)c3CO4)CC2)C1
5. C=CC(=O)NCCN1CCC(c2ccc3c(c2)Nc2ncnc(N4CCOCC4)c2CO3)CC1
Lookup: Please list these in order of increasing pIC50. Thank you! Quick reminder: the answer is the labels in the order asked.
Found: 4, 5, 3, 2, 1

A. C=CC(=O)N1CC(N2CCC(c3cc(C)c4c(c3)Nc3ncnc(N5CCS(=N)(=O)CC5)c3CO4)CC2)C1
B. C=CC(=O)N1CCC(N2CCC(c3cc(C)c4c(c3)Nc3ncnc(N5CCOCC5)c3CO4)CC2)C1 (stereo not drawn)
Lookup: Exercise: compare A and B ; which one has the greater pIC50? Your choice should be expressed through its label.
Found: A
(A: 6.86, B: 6.54)

P. CC#CC(=O)N1CC[C@H](N2CC(c3cc(C)c4c(c3)Nc3ncnc(N5CCS(=O)(=O)CC5)c3[C@@H](C)O4)C2)C1
Q. CC#CC(=O)N1CC[C@@H](N2CC(c3cc(C)c4c(c3)Nc3ncnc(N5CCS(=O)(=O)CC5)c3[C@@H](C)O4)C2)C1
Lookup: Could you tell me which of P and Q has the lower pIC50 reading? Your choice should be expressed through its label.
Found: P

P. C=CC(=O)N1CCC(N2CC(c3cc(F)c4c(c3)Nc3ncnc(N5CCOCC5)c3[C@H](C)O4)C2)CC1
Q. C=CC(=O)N1CC[C@H](N2CC(c3cc(F)c4c(c3)Nc3ncnc(N5CCOCC5)c3CO4)C2)C1 (single isomer, unassigned)
Lookup: Could you tell me which of P and Q has the lower pIC50 reading? Your choice should be expressed through its label.
Found: Q
(Q: 5.98, P: 6.54)

A. C=CC(=O)N1CC(N2CCC(c3ccc4c(c3)Nc3ncnc(N5CCOCC5)c3C(CC)O4)CC2)C1 (stereo not drawn)
B. C=CC(=O)N1CC(N2CCC(c3ccc4c(c3)Nc3ncnc(C5=CCOCC5)c3CO4)CC2)C1
C. C=CC(=O)N1CCC(N2CC(c3cc4c(c(C)n3)OCc3c(ncnc3N3CCS(=O)(=O)CC3)N4)C2)C1 (stereo not drawn)
Lookup: Please list these in order of increasing pIC50. Thank you! Quick reminder: the answer is the labels in the order asked.
Found: C, B, A
(C: 5.39, B: 5.65, A: 6.03)
